Biological target: Follistatin (Homo sapiens) (UniProt P19883)
Sequence (P19883 whole entry, looked up): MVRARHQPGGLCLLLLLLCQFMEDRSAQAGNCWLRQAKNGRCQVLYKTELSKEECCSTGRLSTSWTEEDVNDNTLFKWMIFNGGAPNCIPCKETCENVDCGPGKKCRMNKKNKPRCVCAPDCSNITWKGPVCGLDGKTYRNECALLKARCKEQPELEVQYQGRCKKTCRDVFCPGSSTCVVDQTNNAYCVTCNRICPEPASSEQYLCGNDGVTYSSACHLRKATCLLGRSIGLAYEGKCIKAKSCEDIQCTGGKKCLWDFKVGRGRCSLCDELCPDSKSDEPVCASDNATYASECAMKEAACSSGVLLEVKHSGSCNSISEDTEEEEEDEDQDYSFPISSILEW
Assay: follistatin binders on small-molecule microarrays, primary screen, biochemical, small-molecule microarray, 635/667 nm fluorescence (AID 1132)
Conditions: FST binding, 635 nm fluorescence, higher = more signal
PROPERTY_MEASURED: composite z-score
Write no unit; give the number alone.

COMPOUND	NUMBER
C=CC[C@]1(C(=O)N2CCOCC2)N=C(c2ccc(OCCCO)cc2)O[C@H]1c1ccccc1	0.401

Given `CCOC(=O)C1=C[C@@H](CC)N(S(=O)(=O)c2ccc(C)cc2)[C@H]1c1ccccc1` , respond with its composite z-score.
0.431

Given `COC(=O)[C@@]1(Cc2ccc(F)cc2)[C@H]2c3cc(C(=O)N(C)C)n(CCc4ccccn4)c3C[C@H]2CN1C(=O)c1ccccc1` , respond with its composite z-score.
0.78

Given `C=CCOC(=O)[C@H]1[C@@H]2C(=O)O[C@@H](c3ccccc3)[C@@H](c3ccccc3)N2[C@@H](c2ccc(OCCOC(=O)[C@@H]3C[C@@H]4C(=O)NCC(=O)N4[C@@H]3c3ccc(O)cc3)cc2)[C@]12C(=O)Nc1ccccc12` , respond with its composite z-score.
1.35

Given `Cc1ccc(S[C@]2(C(=O)NC3CC3)CC(=O)N(C3CCCCC3)[C@@H]2c2ccc(CO)cc2I)cc1` , respond with its composite z-score.
1.26

Given `CN(C)CCCCCCNC(=O)[C@H]1C[C@H]2C(=O)N[C@@H](CCCCN)C(=O)N2[C@H]1c1ccc(O)cc1` , respond with its composite z-score.
1.44

Given `COCC(=C=CC[C@H](O)c1ccc(OCCO)cc1)C[C@H](O)c1cc(Cl)cc(Cl)c1O` , respond with its composite z-score.
1.38

Given `O=C1O[C@H](c2ccccc2)[C@H](c2ccccc2)N2[C@H]1[C@@H](C(=O)O)[C@]1(C(=O)Nc3ccc(C#CC4(O)CCCCCC4)cc31)[C@H]2c1ccc(OCCO)cc1` , respond with its composite z-score.
0.196

Given COC(=O)c1ccc(OC)c(/C=C\CC(OC(C)=O)c2ccccc2)c1 (centres undefined) , respond with its composite z-score.
0.946

Given CN1C(=O)C2C=CC(C(O)c3ccccn3)N(Nc3ccccc3)C2C1=O (centres undefined) , respond with its composite z-score.
0.563

Given `COCCOC(=O)N1C(=O)[C@@]2(c3ccccc31)[C@H](c1ccc(O)cc1)N1[C@H](c3ccccc3)[C@H](c3ccccc3)OC(=O)[C@H]1[C@@H]2C(=O)N1CCc2cc(OC)c(OC)cc2C1` , respond with its composite z-score.
1.35

Given `CCOC(=O)C[C@H]1[C@H](OC(=O)c2ccc(-c3ccccc3)cc2)[C@@H](NC(=O)c2ccc3ccccc3c2)c2cc(OCCCO)ccc2N1C(=O)Cc1ccc(OC)cc1` , respond with its composite z-score.
-0.187

Given `CCOC(=O)C[C@H]1[C@H](OC(=O)c2ccc(C(=O)c3ccccc3)cc2)[C@@H](NC(=O)C2CCCCC2)c2cc(OCCCO)ccc2N1C(=O)c1ccccc1` , respond with its composite z-score.
0.27

Given `C=CCOC(=O)[C@@H]1[C@H]2C(=O)O[C@H](c3ccccc3)[C@H](c3ccccc3)N2[C@H](c2ccc(OCCOC(=O)[C@@H]3C[C@@H]4C(=O)N[C@@H](Cc5ccccc5)C(=O)N4[C@@H]3c3cccc(OCCO)c3)cc2)[C@@]12C(=O)Nc1ccc(I)cc12` , respond with its composite z-score.
1.33

Given O=C(OCCF)C1=CCC(c2cccc(Cl)c2)O1 (centres undefined) , respond with its composite z-score.
0.134

Given CCCCCN1CC=CC23O[C@@H]4/C=C\CCCOC(=O)C4[C@H]2C(=O)N(CCCCCCO)[C@@H]3C1=O (some centres undefined) , respond with its composite z-score.
-0.679

Given `COCCOC(=O)N1C(=O)[C@@]2(c3cc(C#CCC(C(=O)OC)C(=O)OC)ccc31)[C@H](C(=O)N1CCN(c3ncccn3)CC1)[C@H]1C(=O)O[C@H](c3ccccc3)[C@H](c3ccccc3)N1[C@@H]2c1ccc(OCCO)cc1` , respond with its composite z-score.
1.24

Given CN1C=C(C(=O)OCCS(C)(=O)=O)C(C(=O)OCCS(C)(=O)=O)=CC(CCCO)=CC1C1CC1 (centres undefined) , respond with its composite z-score.
0.186

Given `CC(C)NC(=O)[C@@H]1c2ccccc2C(=O)N(Cc2ccccc2)[C@H]1c1ccc(CO)cc1` , respond with its composite z-score.
-0.797

Given `C=CCNC(=O)[C@@H]1[C@H]2C(=O)O[C@H](c3ccccc3)[C@H](c3ccccc3)N2[C@H](c2ccc(OCCO)cc2)[C@@]12C(=O)Nc1ccccc12` , respond with its composite z-score.
1.1

Given `[N-]=[N+]=NCc1ccccc1C[C@]1(C(=O)O)N=C(c2ccc(OCCCO)cc2)O[C@H]1c1ccccc1` , respond with its composite z-score.
0.0944

Given [N-]=[N+]=NCc1ccccc1C[C@]1(C(=O)NCC(O)CO)N=C(c2ccc(OCCCO)cc2)O[C@H]1c1ccccc1N=[N+]=[N-] (some centres undefined) , respond with its composite z-score.
-0.181

Given COc1cc2c(cc1O)C(C)N(Cc1cccc(OC(F)(F)F)c1)CC2 (centres undefined) , respond with its composite z-score.
0.659

Given `CC(C)N1C(=O)C[C@@](C(=O)NCc2ccccc2)(c2ccc([N+](=O)[O-])cc2)[C@H]1c1ccc(CO)cc1` , respond with its composite z-score.
0.692

Reference for the values: PubChem BioAssay
